Reference source for all entries: patent US7629318B2

target.system: LG2 (DR1: DRA1*0101 DRB1*0101) cells (Homo sapiens, UniProt P01903+P01911, A100R/D57E/F55L/F60I/F76Y/I96L/L162R/M171V/P40L/Q125E/R42F/V115G/Y59C)
Construct: MHC II Proteins Expressed on PRIESS and LG2 Cells; endogenous in cells; host or cells: LG2 cells
assay.procedure: Competitive binding to MHC II proteins expressed on LG2 cells
Format: cell-based
run.parameters: Cell binding IC50 (uM) LG2 (0101), LG2 (0101)
Numbered stars: 1 amine (or outer) side, 2 acyl side, 3 side chain; on linkers, the order of the positions; unused ones are H or OH. Square brackets hold non-standard residues; d marks the D form. Peptide text beside a SMILES is read from it. * marks the point of attachment. ξ: configuration not given here. Gly(1-amidinopiperidin-4-yl) = N=C(N)N1CCC([C@H](N)C(=O)O)CC1; X1 = CC(C)c1oc([C@H](CO)N[*:1])nc1C(=O)[*:2]; Pro(3R-Ph) = O=C(O)[C@H]1NCC[C@@H]1c1ccccc1; Tic = O=C(O)[C@@H]1Cc2ccccc2CN1; Cha = N[C@@H](CC1CCCCC1)C(=O)O; NMe(benzyl) = CN(Cc1ccccc1)*; ξDisc = O=C(O)C1NCc2ccccc21; Nle = CCCC[C@H](N)C(=O)O
endpoint.label: IC50 (µM)
The response must be a number in µM with no trailing unit.

Reported IC50 for CSCC[C@H](NC(=O)[C@@H]1Cc2ccccc2CN1C(=O)[C@H](CCCNC(=N)N)NC(=O)[C@H](CC1CCCCC1)NC(C)=O)C(=O)N1CC[C@H](c2ccccc2)[C@H]1C(=O)N[C@@H](CO)c1nc(C(=O)N(C)C)c(C(C)C)o1 [Compound P33] (Ac-[Cha]R[Tic]M[Pro(3R-Ph)][X1]-NMe2) : what is it?
4.6

Next compound up: CCCC[C@H](NC(=O)[C@@H]1Cc2ccccc2CN1C(=O)[C@H](CCCNC(=N)N)NC(=O)[C@H](CC1CCCCC1)NC(C)=O)C(=O)N1CC[C@H](c2ccccc2)[C@H]1C(=O)N[C@@H](CO)c1nc(C(=O)N(C)C)c(C(C)C)o1 [Compound P51] (Ac-[Cha]R[Tic][Nle][Pro(3R-Ph)][X1]-NMe2)
3

Next compound up: CSCC[C@H](NC(=O)C1c2ccccc2CN1C(=O)[C@H](CCCNC(=N)N)NC(=O)[C@H](CC1CCCCC1)NC(C)=O)C(N)=O (stereo partly drawn) [Compound P12-1, Ac-Cha-Arg-Disc-Met-NH2] (Ac-[Cha]R[ξDisc]M-NH2)
9.6

Next compound up: CSCC[C@H](NC(=O)[C@@H]1Cc2ccccc2CN1C(=O)[C@@H](NC(=O)[C@H](CC1CCCCC1)NC(C)=O)C1CCN(C(=N)N)CC1)C(=O)N1CC[C@H](c2ccccc2)[C@H]1C(=O)N[C@@H](CO)c1nc(C(=O)N(C)C)c(C(C)C)o1 [Compound P60] (Ac-[Cha][Gly(1-amidinopiperidin-4-yl)][Tic]M[Pro(3R-Ph)][X1]-NMe2)
1.5

Next compound up: CCCC[C@H](NC(=O)C1c2ccccc2CN1C(=O)[C@@H](NC(=O)[C@H](CC1CCCCC1)NC(C)=O)C1CCN(C(=N)N)CC1)C(=O)N(C)Cc1ccccc1 (single isomer, unassigned)
4.6

Next compound up: CSCC[C@H](NC(=O)C1c2ccccc2CN1C(=O)[C@@H](NC(=O)[C@H](CC1CCCCC1)NC(C)=O)C1CCN(C(=N)N)CC1)C(=O)N1CC[C@H](c2ccccc2)[C@H]1C(=O)N[C@@H](CO)c1nc(C(=O)N(C)C)c(C(C)C)o1 (stereo partly drawn) [Compound P41-1] (Ac-[Cha][Gly(1-amidinopiperidin-4-yl)][ξDisc]M[Pro(3R-Ph)][X1]-NMe2)
3.8

Next compound up: CCCC[C@H](NC(=O)[C@@H]1Cc2ccccc2CN1C(=O)[C@@H](NC(=O)[C@H](CC1CCCCC1)NC(C)=O)C1CCN(C(=N)N)CC1)C(=O)N(C)Cc1ccccc1 [Compound P74, Ac-Cha-Gpg-Tic-Nle-N(Me)Bn] (Ac-[Cha][Gly(1-amidinopiperidin-4-yl)][Tic][Nle]-{NMe(benzyl)})
6.1

----------
target.system: Cathepsin D (EC 3.4.23.5 from bovine spleen) (Bos taurus, UniProt P80209)
Procedure: The stability of the peptidomimetic compounds towards lysosomal degradation was examined by incubation with Cathepsin B1 (EC 3.4.22.1 from bovine spleen; Sigma-Aldrich, Taufkirchen; dissolved at 10000 U/l in ddH2O) and D (EC 3.4.23.5 from bovine spleen; Sigma-Aldrich, Taufkirchen; dissolved at 10000 U/l in ddH2O) for four hours at 37° C. using a compound concentration of 50 μM and an enzyme/substrate ratio of 0.4 U/μmol. […]
Square brackets hold non-standard residues; d marks the D form. Peptide text beside a SMILES is read from it. * marks the point of attachment. N(Me)CH2CH2Ph = CN(CCc1ccccc1)*; Tic = O=C(O)[C@@H]1Cc2ccccc2CN1; Cha = N[C@@H](CC1CCCCC1)C(=O)O; NMe(benzyl) = CN(Cc1ccccc1)*; Nle = CCCC[C@H](N)C(=O)O
Stability (Arbitrary units) Cath D 4 h values, listed per item

>>> recorded_measurement("CSCC[C@H](NC(=O)[C@@H]1Cc2ccccc2CN1C(=O)[C@H](CCCNC(=N)N)NC(=O)[C@H](CC1CCCCC1)NC(C)=O)C(=O)N(C)CCc1ccccc1 [Compound P84, Ac-Cha-Arg-Tic-Met-N(Me)CH2CH2Ph] (Ac-[Cha]R[Tic]M-{N(Me)CH2CH2Ph})")
"101 Arbitrary units"

Below: the item to evaluate.
Reported Stability (Arbitrary units) Cath D 4 h for CCCC[C@H](NC(=O)[C@@H]1Cc2ccccc2CN1C(=O)[C@H](CCCNC(=N)N)NC(=O)[C@H](CC1CCCCC1)NC(C)=O)C(=O)N(C)Cc1ccccc1 [Compound P71, Ac-Cha-Arg-Tic-Nle-N(Me)Bn] (Ac-[Cha]R[Tic][Nle]-{NMe(benzyl)}) : what is it?
104 Arbitrary units

----------
Test system: T-cell proliferation, lymph node cells of chimeric 0401-IE transgenic mice
run.parameters: read-out: Immunsupressive assays DR4-LN (IC50); DR4-LN
Numbered stars: 1 amine (or outer) side, 2 acyl side, 3 side chain; on linkers, the order of the positions; unused ones are H or OH. Square brackets hold non-standard residues; d marks the D form. Peptide text beside a SMILES is read from it. * marks the point of attachment. ξ: configuration not given here. Gly(1-amidinopiperidin-4-yl) = N=C(N)N1CCC([C@H](N)C(=O)O)CC1; Tetrahydroisoquinolin(2-yl) = c1ccc2c(c1)CCN(*)C2; X1 = CC(C)c1oc([C@H](CO)N[*:1])nc1C(=O)[*:2]; Pro(3R-Ph) = O=C(O)[C@H]1NCC[C@@H]1c1ccccc1; Tic = O=C(O)[C@@H]1Cc2ccccc2CN1; Cha = N[C@@H](CC1CCCCC1)C(=O)O; ξDisc = O=C(O)C1NCc2ccccc21; X4 = OCCOCCN(CCc1ccccc1)*; Nle = CCCC[C@H](N)C(=O)O; NHBn = c1ccc(CN*)cc1
endpoint.label: pIC50
API: returns pIC50 as number; meaning -log10 of concentration in mol/L.

Examples from the recorded data:
>>> recorded_measurement("CCCC[C@H](NC(=O)C1c2ccccc2CN1C(=O)[C@@H](NC(=O)[C@H](CC1CCCCC1)NC(C)=O)C1CCN(C(=N)N)CC1)C(=O)N(C)Cc1ccccc1 (single isomer, unassigned) [Compound P76-1, Ac-Cha-Gpg-Disc-Nle-N(Me)Bn]")
4.47
>>> recorded_measurement("CCCC[C@H](NC(=O)C1c2ccccc2CN1C(=O)[C@@H](NC(=O)[C@H](CC1CCCCC1)NC(C)=O)C1CCN(C(=N)N)CC1)C(=O)N(C)Cc1ccccc1 (single isomer, unassigned) [Compound P78-1]")
4.47
>>> recorded_measurement("CSCC[C@H](NC(=O)[C@@H]1Cc2ccccc2CN1C(=O)[C@H](CCCNC(=N)N)NC(=O)[C@H](CC1CCCCC1)NC(C)=O)C(=O)N1CC[C@H](c2ccccc2)[C@H]1C(N)=O [Compound P31, Ac-Cha-Arg-Tic-Met-βPhPro-NH2] (Ac-[Cha]R[Tic]M[Pro(3R-Ph)]-NH2)")
4.74
>>> recorded_measurement("CSCC[C@H](NC(=O)C1c2ccccc2CN1C(=O)[C@@H](NC(=O)[C@H](CC1CCCCC1)NC(C)=O)C1CCN(C(=N)N)CC1)C(N)=O (stereo partly drawn) [Compound P66-1, Ac-Cha-Gpg-Disc-Met-NH2] (Ac-[Cha][Gly(1-amidinopiperidin-4-yl)][ξDisc]M-NH2)")
3.92
>>> recorded_measurement("CCCC[C@H](NC(=O)[C@@H]1Cc2ccccc2CN1C(=O)[C@H](CCCNC(=N)N)NC(=O)[C@H](CC1CCCCC1)NC(C)=O)C(=O)N(CCOCCO)CCc1ccccc1 [Compound P88] (Ac-[Cha]R[Tic][Nle]-X4)")
3.98
>>> recorded_measurement("CCCC[C@H](NC(=O)[C@@H]1Cc2ccccc2CN1C(=O)[C@@H](NC(=O)[C@H](CC1CCCCC1)NC(C)=O)C1CCN(C(=N)N)CC1)C(=O)N1CCc2ccccc2C1 [Compound P77] (Ac-[Cha][Gly(1-amidinopiperidin-4-yl)][Tic][Nle]-{Tetrahydroisoquinolin(2-yl)})")
5.00
>>> recorded_measurement("CSCC[C@H](NC(=O)C1c2ccccc2CN1C(=O)[C@@H](NC(=O)[C@H](CC1CCCCC1)NC(C)=O)C1CCN(C(=N)N)CC1)C(=O)N1CC[C@H](c2ccccc2)[C@H]1C(=O)N[C@@H](CO)c1nc(C(=O)N(C)C)c(C(C)C)o1 (stereo partly drawn) [Compound P41-1] (Ac-[Cha][Gly(1-amidinopiperidin-4-yl)][ξDisc]M[Pro(3R-Ph)][X1]-NMe2)")
4.31

Below: the item to evaluate.
Reported pIC50 for CCCC[C@H](NC(=O)[C@@H]1Cc2ccccc2CN1C(=O)[C@@H](NC(=O)[C@H](CC1CCCCC1)NC(C)=O)C1CCN(C(=N)N)CC1)C(=O)NCc1ccccc1 [Compound P68, Ac-Cha-Gpg-Tic-Nle-N(H)Bn] (Ac-[Cha][Gly(1-amidinopiperidin-4-yl)][Tic][Nle]-NHBn) : what is it?
4.74
